biological target: Phosphatidylinositol 4,5-bisphosphate 3-kinase catalytic subunit beta isoform (Homo sapiens); assay: Inhibition of PI3Kbeta (unknown origin) preincubated for 10 mins followed by ATP addition and measured after 60 mins by ADP-Glo assay
Sequence (P42338 whole entry, canonical isoform): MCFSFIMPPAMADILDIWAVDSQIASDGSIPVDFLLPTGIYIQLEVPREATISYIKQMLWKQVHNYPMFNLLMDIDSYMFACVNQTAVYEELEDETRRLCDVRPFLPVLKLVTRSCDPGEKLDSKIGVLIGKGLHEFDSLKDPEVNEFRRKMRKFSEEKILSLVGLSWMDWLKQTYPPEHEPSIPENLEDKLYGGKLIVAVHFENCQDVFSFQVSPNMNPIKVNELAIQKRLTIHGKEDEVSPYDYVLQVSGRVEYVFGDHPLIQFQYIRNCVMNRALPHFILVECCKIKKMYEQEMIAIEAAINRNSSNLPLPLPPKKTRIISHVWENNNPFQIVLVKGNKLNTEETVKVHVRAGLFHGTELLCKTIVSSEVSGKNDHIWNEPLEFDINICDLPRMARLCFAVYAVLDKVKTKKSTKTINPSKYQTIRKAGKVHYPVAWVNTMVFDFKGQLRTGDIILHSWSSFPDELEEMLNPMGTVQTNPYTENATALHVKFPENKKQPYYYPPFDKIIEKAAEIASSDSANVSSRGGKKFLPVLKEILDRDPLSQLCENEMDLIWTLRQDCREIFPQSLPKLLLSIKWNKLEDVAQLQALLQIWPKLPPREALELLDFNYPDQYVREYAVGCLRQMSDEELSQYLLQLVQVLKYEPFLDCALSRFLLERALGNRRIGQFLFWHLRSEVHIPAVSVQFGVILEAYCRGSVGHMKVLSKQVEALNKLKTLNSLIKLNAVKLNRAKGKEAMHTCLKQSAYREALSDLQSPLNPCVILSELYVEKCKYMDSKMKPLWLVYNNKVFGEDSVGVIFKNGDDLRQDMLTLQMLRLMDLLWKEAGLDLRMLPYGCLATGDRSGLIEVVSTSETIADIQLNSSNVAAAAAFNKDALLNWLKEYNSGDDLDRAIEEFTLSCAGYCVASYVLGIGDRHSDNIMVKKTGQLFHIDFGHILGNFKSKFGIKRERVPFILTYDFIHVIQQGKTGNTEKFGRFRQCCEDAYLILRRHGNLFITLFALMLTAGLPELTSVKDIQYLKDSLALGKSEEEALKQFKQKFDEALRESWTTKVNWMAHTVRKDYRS
quantity.measured: IC50 (µM)
Answers are plain numbers, in µM.

Q: # get_value(readout='IC50', item= Cn1c(=O)n(C)c2ccc3ccc4ccc1c2c43 )
Ans: 5.02

* * *

target: Phosphatidylinositol 4,5-bisphosphate 3-kinase catalytic subunit delta isoform (Homo sapiens); assay: Inhibition of PI3Kdelta (unknown origin) preincubated for 10 mins followed by ATP addition and measured after 60 mins by ADP-Glo assay
Sequence (O00329 whole entry, canonical isoform): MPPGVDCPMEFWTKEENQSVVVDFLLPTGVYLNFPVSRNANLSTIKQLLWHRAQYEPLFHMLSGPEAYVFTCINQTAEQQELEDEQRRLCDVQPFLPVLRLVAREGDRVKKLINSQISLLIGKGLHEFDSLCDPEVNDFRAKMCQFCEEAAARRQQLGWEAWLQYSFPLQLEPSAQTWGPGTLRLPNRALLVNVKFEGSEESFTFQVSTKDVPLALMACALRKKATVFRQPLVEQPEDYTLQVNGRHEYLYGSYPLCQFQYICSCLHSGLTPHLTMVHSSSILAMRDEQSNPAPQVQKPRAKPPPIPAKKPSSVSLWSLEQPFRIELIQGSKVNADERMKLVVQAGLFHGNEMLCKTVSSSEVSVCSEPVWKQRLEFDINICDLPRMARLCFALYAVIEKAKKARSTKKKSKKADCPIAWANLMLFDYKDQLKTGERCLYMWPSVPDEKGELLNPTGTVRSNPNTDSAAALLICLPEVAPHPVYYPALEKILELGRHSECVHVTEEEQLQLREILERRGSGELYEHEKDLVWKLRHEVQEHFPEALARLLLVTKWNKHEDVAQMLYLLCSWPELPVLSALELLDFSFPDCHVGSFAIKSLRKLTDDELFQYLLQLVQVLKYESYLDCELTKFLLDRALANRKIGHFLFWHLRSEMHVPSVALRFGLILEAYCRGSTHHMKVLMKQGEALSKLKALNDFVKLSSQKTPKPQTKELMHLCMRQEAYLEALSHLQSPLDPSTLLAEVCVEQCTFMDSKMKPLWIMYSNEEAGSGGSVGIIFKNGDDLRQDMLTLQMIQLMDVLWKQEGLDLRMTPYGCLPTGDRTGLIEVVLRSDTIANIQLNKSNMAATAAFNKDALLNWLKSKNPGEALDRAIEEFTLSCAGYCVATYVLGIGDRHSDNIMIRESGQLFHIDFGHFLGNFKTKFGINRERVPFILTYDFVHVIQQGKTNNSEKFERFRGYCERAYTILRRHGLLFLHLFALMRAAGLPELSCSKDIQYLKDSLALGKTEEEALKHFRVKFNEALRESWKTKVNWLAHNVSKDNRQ
quantity.measured: pIC50
Answers are plain numbers, as −log10 of the molar value.

Q: # get_value(readout='pIC50', item= Cn1c(=O)n(C)c2ccc3ccc4ccc1c2c43 )
Ans: 4.93

* * *

target: Phosphatidylinositol 4,5-bisphosphate 3-kinase catalytic subunit gamma isoform (Homo sapiens); experiment: Inhibition of PI3Kgamma (unknown origin) preincubated for 10 mins followed by ATP addition and measured after 60 mins by ADP-Glo assay
Sequence (P48736 whole entry, canonical isoform): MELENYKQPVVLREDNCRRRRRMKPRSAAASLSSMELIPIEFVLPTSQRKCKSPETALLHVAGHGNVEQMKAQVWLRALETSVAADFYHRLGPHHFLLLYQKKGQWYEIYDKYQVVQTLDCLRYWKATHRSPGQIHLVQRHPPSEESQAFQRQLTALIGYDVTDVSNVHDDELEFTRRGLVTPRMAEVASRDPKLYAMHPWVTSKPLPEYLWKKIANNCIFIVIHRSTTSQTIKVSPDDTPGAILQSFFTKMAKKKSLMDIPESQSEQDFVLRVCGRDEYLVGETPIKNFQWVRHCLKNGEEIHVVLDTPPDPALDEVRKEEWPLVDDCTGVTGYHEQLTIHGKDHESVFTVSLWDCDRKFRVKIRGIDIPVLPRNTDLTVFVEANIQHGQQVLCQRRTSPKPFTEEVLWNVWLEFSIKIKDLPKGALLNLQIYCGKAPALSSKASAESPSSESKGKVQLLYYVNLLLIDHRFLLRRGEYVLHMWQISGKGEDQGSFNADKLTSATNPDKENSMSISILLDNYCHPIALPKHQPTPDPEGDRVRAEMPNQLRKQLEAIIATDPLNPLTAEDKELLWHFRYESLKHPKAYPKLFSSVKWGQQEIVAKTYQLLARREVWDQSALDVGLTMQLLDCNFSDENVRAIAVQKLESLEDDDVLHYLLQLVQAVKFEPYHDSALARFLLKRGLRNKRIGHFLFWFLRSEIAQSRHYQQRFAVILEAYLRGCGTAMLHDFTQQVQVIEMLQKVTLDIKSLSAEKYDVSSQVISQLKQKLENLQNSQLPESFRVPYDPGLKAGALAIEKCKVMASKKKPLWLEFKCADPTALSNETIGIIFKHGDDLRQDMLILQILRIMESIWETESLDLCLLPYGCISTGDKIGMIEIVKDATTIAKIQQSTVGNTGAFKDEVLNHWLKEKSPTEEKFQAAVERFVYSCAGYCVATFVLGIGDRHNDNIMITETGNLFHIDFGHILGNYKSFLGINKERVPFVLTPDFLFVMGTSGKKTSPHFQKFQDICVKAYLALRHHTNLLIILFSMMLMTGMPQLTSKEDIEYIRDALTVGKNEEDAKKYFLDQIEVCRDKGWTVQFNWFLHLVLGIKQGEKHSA
quantity.measured: IC50
In your response, put the unit directly after the numeric value.

// batch mode: one IC50 value per listed entry
1. Cn1c(=O)n(C)c2ccc3ccc4ccc1c2c43
2. Cn1c(=O)c2cc(S(=O)(=O)NC3CC3)ccc2n(C)c1=O
3. Cn1c(=O)c2cc(S(N)(=O)=O)ccc2n(C)c1=O

Ans:
1. 2.45 µM
2. 15.9 µM
3. 17.5 µM
